- Target: T1, human Ang-2 V345M (human, UniProt O15123 19-496)
- T1 sequence: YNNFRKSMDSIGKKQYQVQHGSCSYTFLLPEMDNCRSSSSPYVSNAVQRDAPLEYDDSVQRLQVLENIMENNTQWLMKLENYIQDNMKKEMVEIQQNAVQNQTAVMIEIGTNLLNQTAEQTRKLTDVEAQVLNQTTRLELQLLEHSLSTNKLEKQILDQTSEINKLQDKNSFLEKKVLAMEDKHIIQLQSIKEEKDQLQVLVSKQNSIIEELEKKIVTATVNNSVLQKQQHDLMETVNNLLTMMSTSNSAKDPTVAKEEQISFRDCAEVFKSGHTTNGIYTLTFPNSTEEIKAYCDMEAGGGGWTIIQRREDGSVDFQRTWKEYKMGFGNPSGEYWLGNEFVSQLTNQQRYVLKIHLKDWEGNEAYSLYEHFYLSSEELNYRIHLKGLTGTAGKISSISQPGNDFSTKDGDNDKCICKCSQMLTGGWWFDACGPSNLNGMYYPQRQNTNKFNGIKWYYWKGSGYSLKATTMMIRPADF
- Test protocol: ELISA
Overview of recorded % of binding to human Ang-2 for various binders

binder="mAb 3.3.2 (antibody, V domains shown, Human hybridoma IgG (XenoMouse); also called 3.3.1; x3.3) VH: EVQLVESGGGLVQPGGSLRLSCAVSGFTFSSYWMSWVRQAPGKGLEWVANIKQDGSEKYYVDSVKGRFTISRDNAKNSLYLQMNSLRAEDTAVYYCARDQGIAVAGPFDYWGQGTLVTVSS VL: EIVMTQSPATLSVSPGERATLSCRASQTVSSDLAWYQQKPGQAPRLLIYGASIRATGIPARFSGSGSGTEFTLTISSLQSEDFAVYSCQQYYNWWTFGQGTKVEIKR" meas_value=100%

Continue with the binder presented below.
**Query** I'd like to know its % of binding to human Ang-2. The binder in question is mAb 5.28.1 (antibody, V domains shown, Human hybridoma IgG (XenoMouse); also called x5.28) VH: EVQLVESGGIVVQPGGSLRLSCAASGFTFDDYTMHWVRQTPGKGLEWVSLISWDGGSTYYADSVKGRFTISRDNSKNSLYLQMNSLRTEDTALYYCAKDIDIAVAGTGFDHWGQGTLVTVSS VL: EIVMTQSPATLSVSPGERATLSCRASQSVTSNLAWYQQKPGQAPRLLIYGALIRATGIPARFSGSGSGTEFTLTISSLQSEDFAVYYCQQYNNWPFTFGPGTKVDIKR
**Result** 100%

Ref: patent US20080267971A1
